Each recorded value in this set is attributed to patent US7935722B2.

biological target: human AR (androgen receptor) (Homo sapiens); construct: expressed in transfected cells; host or cells: 293 cells (293-AR lysate); experiment: Steroid hormone nuclear receptor binding assay, AR binding; settings: read-out: AR binding Ki; average of n trials
readout.name: pKi
Scale for pKi: -log10 of concentration given in mol/L; no unit attached.

Query CC(C)C(=O)NC1CCc2c(c3cc(Br)ccc3n2Cc2cccc(F)c2)C1 (stereo not shown) [Example 1] yields pKi of 8.59

---

biological target: human androgen receptor (AR) (Homo sapiens, UniProt P10275); construct: expressed in transfected cells; host or cells: mouse myoblast C2C12 cells, transiently co-transfected; assay: C2C12 AR/ARE reporter assay; assay type: cell-based
The entries below are paired with their reported EC50.
Supply the numeric figure in nM, leaving out any unit text.

CC(C)C(=O)NC1CCc2c(c3cc(N(C)C)ccc3n2Cc2cccc(F)c2)C1 (stereo not drawn)	369

Reported EC50 for CC(C)C(=O)NC1CCc2c(c3cc(C#N)c(F)cc3n2Cc2cccc(F)c2)C1 (stereo not drawn) was 4.3

For CC(C)C(=O)NC1CCc2c(c3cc(Cl)ccc3n2Cc2ccccc2Cl)C1 (stereo not drawn) the compound record lists EC50 as 153

---

target: human androgen receptor (AR) (Homo sapiens, UniProt P10275); construct: expressed in transfected cells; host or cells: mouse myoblast C2C12 cells, transiently co-transfected; test: C2C12 AR/ARE reporter assay; type: cell-based; conditions: C2C12, read-out: C2C12 % Efficacy
Measured Emax by item

Worked examples, 4 compounds total:
Cc1ccc2c(c1)c1c(n2Cc2cccc(C#N)c2)CCC(NC(=O)C(C)C)C1 (centres unmarked) [Example 50]	45.8%
CC(C)C(=O)NC1CCc2c(c3c(F)c(C#N)ccc3n2Cc2cccc(F)c2)C1 (centres unmarked) [Example 116]	78.3%
COc1ccc2c(c1)c1c(n2Cc2cccc(Cl)c2)CCC(NC(=O)C(C)C)C1 (centres unmarked) [Example 70]	63.9%
Cc1cccc2c3c(n(Cc4cccc(F)c4)c12)CCC(NC(=O)C(C)C)C3 (centres unmarked) [Example 60]	74.2%

Next compound, please.
response.value for CCOC(=O)c1ccc2c(c1)c1c(n2Cc2cccc(F)c2)CCC(NC(=O)C(C)C)C1 (centres unmarked) [Example 52] (field: Emax) = 73.2%

---

Target: human androgen receptor (AR) (Homo sapiens)
Construct: expressed in transfected cells; host or cells: mouse myoblast C2C12 cells, transiently co-transfected
Sequence (P10275 1-920): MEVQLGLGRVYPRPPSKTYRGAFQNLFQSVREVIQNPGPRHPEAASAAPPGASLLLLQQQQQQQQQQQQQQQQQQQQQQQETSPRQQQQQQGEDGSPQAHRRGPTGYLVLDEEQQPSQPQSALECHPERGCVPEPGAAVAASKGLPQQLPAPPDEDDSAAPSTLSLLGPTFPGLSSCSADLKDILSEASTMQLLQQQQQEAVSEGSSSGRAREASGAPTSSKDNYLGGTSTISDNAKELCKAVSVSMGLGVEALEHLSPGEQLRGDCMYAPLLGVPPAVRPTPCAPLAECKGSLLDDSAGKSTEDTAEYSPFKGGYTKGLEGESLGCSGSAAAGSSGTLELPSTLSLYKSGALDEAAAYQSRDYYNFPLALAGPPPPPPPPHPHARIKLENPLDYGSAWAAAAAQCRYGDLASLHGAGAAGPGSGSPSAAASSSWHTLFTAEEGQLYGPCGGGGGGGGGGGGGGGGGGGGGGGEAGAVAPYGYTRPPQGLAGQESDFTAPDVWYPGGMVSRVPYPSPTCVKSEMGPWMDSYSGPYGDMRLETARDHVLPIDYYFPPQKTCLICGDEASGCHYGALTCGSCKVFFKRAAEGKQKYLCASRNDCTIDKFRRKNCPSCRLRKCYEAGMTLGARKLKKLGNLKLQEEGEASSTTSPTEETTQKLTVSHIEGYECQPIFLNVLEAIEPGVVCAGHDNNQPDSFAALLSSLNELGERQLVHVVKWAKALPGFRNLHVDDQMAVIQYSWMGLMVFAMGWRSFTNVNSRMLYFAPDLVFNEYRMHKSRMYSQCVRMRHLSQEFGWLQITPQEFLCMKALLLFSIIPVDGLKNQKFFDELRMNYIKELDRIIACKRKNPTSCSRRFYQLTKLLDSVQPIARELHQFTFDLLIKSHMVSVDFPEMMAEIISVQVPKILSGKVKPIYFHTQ
Experiment: C2C12 AR/ARE reporter assay
Format: cell-based
Details: C2C12, read-out: C2C12 % Efficacy
readout.name: Emax (%)
Provide only the numeric value, understood in %.

Completed entries (count: 5):
CC(C)C(=O)N[C@@H]1CCc2c(c3cc(C#N)ccc3n2Cc2csc(Cl)n2)C1 [Example 154]	119
Cc1ccc2c(c1)c1c(n2Cc2cccc(F)c2)CCC(NC(=O)C(C)C)C1 (centres unmarked) [Example 47]	86.3
CC(C)C(=O)N[C@@H]1CCc2c(c3cc(C#N)ccc3n2Cc2cccc(F)c2)C1 (single isomer, unassigned) [Example 123]	87
Cc1nc(Cn2c3c(c4cc(C#N)ccc42)CC(NC(=O)C(C)C)CC3)cs1 (centres unmarked) [Example 150]	91.3
CO/N=C/c1ccc2c(c1)c1c(n2Cc2csc(C)n2)CC[C@@H](NC(=O)C(C)C)C1 [Example 212]	90.4

Emax recorded for this molecule, CC(C)C(=O)NC1CCc2c(c3cc(C#N)c(F)cc3n2Cc2cccc(F)c2)C1 (centres unmarked) [Example 115] , is 74.7

In plain terms, CC(C)C(=O)NC1CCc2c(c3cc(Cl)ccc3n2Cc2cccc(C(F)(F)F)c2)C1 (centres unmarked) [Example 83] has a documented Emax of 93.1

The molecule listed as CC(C)C(=O)NC1CCc2c(c3cc(Cl)ccc3n2Cc2cccc(C#N)c2)C1 (centres unmarked) [Example 24] has a reported Emax of 48.9

---

Entries annotated with measured EC50
Molecular target: human androgen receptor (AR) (Homo sapiens)
Construct: expressed in transfected cells; host or cells: mouse myoblast C2C12 cells, transiently co-transfected
Sequence (P10275 1-920): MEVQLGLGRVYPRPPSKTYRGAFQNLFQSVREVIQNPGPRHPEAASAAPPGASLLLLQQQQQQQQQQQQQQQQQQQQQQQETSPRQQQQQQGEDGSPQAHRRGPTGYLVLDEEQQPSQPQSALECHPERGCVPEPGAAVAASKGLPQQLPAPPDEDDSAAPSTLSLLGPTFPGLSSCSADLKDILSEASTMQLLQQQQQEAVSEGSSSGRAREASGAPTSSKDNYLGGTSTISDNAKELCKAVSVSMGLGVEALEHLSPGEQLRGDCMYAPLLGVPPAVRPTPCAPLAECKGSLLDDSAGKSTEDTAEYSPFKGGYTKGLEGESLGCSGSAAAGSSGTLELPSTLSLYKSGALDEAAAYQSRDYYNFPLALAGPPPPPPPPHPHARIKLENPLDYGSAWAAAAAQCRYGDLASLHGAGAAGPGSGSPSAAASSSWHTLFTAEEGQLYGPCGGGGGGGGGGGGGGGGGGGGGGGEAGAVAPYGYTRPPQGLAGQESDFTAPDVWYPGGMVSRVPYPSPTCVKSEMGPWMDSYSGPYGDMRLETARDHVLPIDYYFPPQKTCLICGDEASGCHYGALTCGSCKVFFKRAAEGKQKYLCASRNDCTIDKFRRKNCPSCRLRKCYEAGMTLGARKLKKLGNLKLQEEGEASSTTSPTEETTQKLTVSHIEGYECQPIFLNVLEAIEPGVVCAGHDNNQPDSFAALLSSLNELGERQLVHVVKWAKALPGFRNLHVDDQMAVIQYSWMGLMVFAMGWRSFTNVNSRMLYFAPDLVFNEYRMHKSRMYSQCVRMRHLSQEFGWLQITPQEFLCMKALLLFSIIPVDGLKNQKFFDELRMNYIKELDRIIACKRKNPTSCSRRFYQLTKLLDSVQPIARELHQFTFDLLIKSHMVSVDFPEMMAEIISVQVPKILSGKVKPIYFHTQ
Experiment: C2C12 AR/ARE reporter assay
Assay type: cell-based
Report as a plain number; the unit nM is understood.

CC(C)C(=O)NC1CCc2c(c3cc(S(C)(=O)=O)ccc3n2Cc2cccc(F)c2)C1 (stereo not shown)	24.3
CC(C)C(=O)NC1CCc2c(c3cc(Cl)ccc3n2Cc2cccc(C(F)(F)F)c2)C1 (stereo not shown)	85.1
CC(C)C(=O)NC1CCc2c(c3cc(C#N)c(Cl)cc3n2Cc2cccc(F)c2)C1 (stereo not shown)	31.7

Please examine the following record next.
# EC50 measured on human androgen receptor (AR) (Homo sapiens) for item `CC(C)C(=O)N[C@@H]1CCc2c(c3cc(-c4cnc(N)s4)ccc3n2Cc2cccc(F)c2)C1` = 41

---

Reported EC50 is given for each of the following compounds.
molecular target: human androgen receptor (AR) (Homo sapiens); construct: expressed in transfected cells; host or cells: mouse myoblast C2C12 cells, transiently co-transfected; test: C2C12 AR/ARE reporter assay; format: cell-based
Give just the number in nM; leave the unit off.

Examples with answers:
CCOC(=O)c1ccc2c(c1)c1c(n2Cc2cccc(F)c2)CCC(NC(=O)C(C)C)C1 (stereo not shown)	5.6
N#Cc1ccc2c(c1)c1c(n2Cc2cccc(F)c2)CC[C@@H](NC(=O)C2CC2)C1	2
COc1ccccc1Cn1c2c(c3cc(C#N)ccc31)CC(NC(=O)C(C)C)CC2 (stereo not shown)	30.7

API: the following record is the query input.
Record CC(C)C(=O)NC1CCc2c(c3cc(C#N)ccc3n2Cc2ccccn2)C1 (stereo not shown) . Reported EC50: 15.5
